Test system: Chlamydia pneumoniae
Procedure Text: Antichlamydial activity against Chlamydia pneumoniae K7 infected in HL cells after 70 hrs by fluorescent microscopic analysis
Type: functional, organism-based
Condition Parameters: K7, HL, 70 h
IC50 values, listed per item

OC1c2ccccc2N=C2CCCN21 (stereo unspecified) [PEGANOLE] | 35.1 µM
C=C[C@](C)(O)CC[C@H]1C(=C)CC[C@H]2C(C)(C)CCC[C@]12C | 35.5 µM
COc1c(C)c2c(c(O)c1C/C=C(\C)CCC(=O)O)C(=O)OC2 [MYCOPHENOLIC ACID] | 0.31 µM
CC1=C2C(=O)[C@H]3[C@@H](CC=C4C[C@@H](O)CC[C@@]43C)[C@@H]2CC[C@]12O[C@@H]1C[C@H](C)CN[C@H]1[C@H]2C [JERVINE] | 25.6 µM
CC(=O)N[C@H]1CN2CC[C@H](O)[C@@H]2[C@@H](O)[C@@H]1O | 67.2 µM

Field: next compound
Per the records, this compound ( "CCC1=CC2CN3CCc4c([nH]c5ccccc45)[C@@](C(=O)OC)(C2)C13" ) has IC50 equal to 52.6 µM

###

Procedure Text: Cytotoxicity against human HL cells assessed as cell viability at 50 uM after 72 hrs by resazurin dye based fluorescence assay relative to control
Condition Parameters: HL cells, read-out: Activity
Experimental Readout: viability at 72 h, 50 µM (%)
Report only the number, with the unit % understood.

Solved entries:
CC1=C2C(=O)[C@H]3[C@@H](CC=C4C[C@@H](O)CC[C@@]43C)[C@@H]2CC[C@]12O[C@@H]1C[C@H](C)CN[C@H]1[C@H]2C | 89.3
C[C@@H]1O[C@@H](OC[C@H]2O[C@@H](Oc3cc(O)c4c(c3)O[C@H](c3ccc(O)c(O)c3)CC4=O)[C@H](O)[C@@H](O)[C@@H]2O)[C@H](O)[C@H](O)[C@H]1O | 75.2

Measured viability at 72 h, 50 µM of "OC[C@@H]1CCCN2CCCC[C@H]12" : 98.7

Query "CCn1cc(C(=O)O)c(=O)c2ccc(C)nc21" yields viability at 72 h, 50 µM of 15.8

What the record says about "CC(=O)O[C@H]1C(=O)[C@@]2(C)[C@H]([C@H](OC(=O)c3ccccc3)[C@]3(O)C[C@H](O)C(C)=C1C3(C)C)[C@]1(OC(C)=O)CO[C@@H]1C[C@@H]2O" : viability at 72 h, 50 µM is 34.6

C[C@@H]1C[C@@H]([C@H](O)CC2CC(=O)NC(=O)C2)C(=O)[C@@H](C)C1 [CYCLOHEXIMIDE] yielded viability at 72 h, 50 µM of 66.4

Lab note: measured viability at 72 h, 50 µM of "C[C@@]1(CO)[C@H](O)CC[C@@]2(C)[C@H]1CC[C@H]1C[C@@H]3C[C@@]12CC[C@]3(O)CO" was 92.3

For reference, reported viability at 72 h, 50 µM for "CCOC(=O)Oc1c(OC)cc(C(=O)O[C@H]2C[C@H]3CN4CCc5c([nH]c6cc(OC)ccc56)[C@@H]4C[C@H]3[C@@H](C(=O)OC)[C@@H]2OC)cc1OC" stands at 67.6

The compound identified as OC1c2ccccc2N=C2CCCN21 (centres undefined) registered its viability at 72 h, 50 µM at 95.2
